experimental system: CD45 (Homo sapiens, UniProt P08575)
Construct: purchased BIOMOL (Plymouth Meeting, P.A.)
Sequence (P08575 599-1306 limits assumed): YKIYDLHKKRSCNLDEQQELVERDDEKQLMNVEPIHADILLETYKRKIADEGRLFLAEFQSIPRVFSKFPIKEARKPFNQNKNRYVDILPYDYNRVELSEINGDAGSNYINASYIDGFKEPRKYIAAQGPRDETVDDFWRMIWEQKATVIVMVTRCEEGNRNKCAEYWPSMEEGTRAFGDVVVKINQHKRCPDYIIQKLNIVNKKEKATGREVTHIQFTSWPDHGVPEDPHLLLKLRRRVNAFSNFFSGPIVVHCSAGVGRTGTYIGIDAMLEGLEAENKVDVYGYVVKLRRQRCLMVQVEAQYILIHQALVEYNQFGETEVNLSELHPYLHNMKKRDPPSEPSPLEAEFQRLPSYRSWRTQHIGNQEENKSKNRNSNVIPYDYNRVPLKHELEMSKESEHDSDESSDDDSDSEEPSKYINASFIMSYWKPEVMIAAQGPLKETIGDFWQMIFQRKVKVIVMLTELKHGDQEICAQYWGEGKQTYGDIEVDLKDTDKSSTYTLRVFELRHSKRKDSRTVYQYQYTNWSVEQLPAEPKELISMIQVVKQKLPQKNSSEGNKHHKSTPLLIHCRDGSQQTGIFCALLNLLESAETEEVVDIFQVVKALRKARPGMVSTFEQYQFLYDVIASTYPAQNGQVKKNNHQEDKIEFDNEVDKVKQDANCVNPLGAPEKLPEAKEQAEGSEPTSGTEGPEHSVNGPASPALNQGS
protocol: Phosphatase assay using lck 10-mer as substrate
Assay type: biochemical
experimental setup: lck carboxy-terminal peptide TEGQpYQPQP substrate, pH 7.2, 1.5 h; read-out: Ick IC50
Each item that follows carries a reported IC50.

[in] # lookup: IC50 of O=C1C(=O)c2ncccc2-c2ccccc21 [Example 1, benzo[f]quinoline-5,6-dione]
[out] > 30 µM

[in] # lookup: IC50 of O=C1C(=O)c2ccsc2-c2ccccc21 [Example 4, naphtho[1,2-b]thiophene-4,5-dione]
[out] > 30 µM

----------
protocol: Cytotoxicity assay (Calcein-AM uptake)
Format: cell-based
experimental setup: human, PHA-expanded T-cell lymphoblasts derived from PBMC, overnight incubation, Calcein-AM viability
Each item that follows carries a reported CC50.
Form entry: value (µM) — number only.

# annotated cases, reported CC50 shown
1. O=C1C(=O)c2cccnc2-c2ccccc21 [Example 2, benzo[h]quinoline-5,6-dione]
2.4
2. O=C1C(=O)c2ccsc2-c2ccccc21 [Example 4, naphtho[1,2-b]thiophene-4,5-dione]
3.5
3. O=C1C(=O)c2ccoc2-c2ccccc21 [Example 3, naphtho[,1,2b]furan-4,5-dione]
3.5

Now, please, on to the next compound.
[in] # lookup: CC50 of O=C1C(=O)c2ncccc2-c2ccccc21 [Example 1, benzo[f]quinoline-5,6-dione]
[out] 7
